Provenance of the data: ChEMBL document CHEMBL3627695

test.method.notes: Anticancer activity against human OCI-AML3 cells expressing mutant NPM1 assessed as apoptosis for 48 hrs by annexin-V and TO-PRO3 staining based flow cytometry
Format: functional, cell-based
recorded.conditions: OCI-AML-3, 48 h
Assign AC50 to each entry below.
Give bare numbers, in µM.

Some entries whose results are on file:
smiles.structure	AC50 (µM)
COC(=O)c1ccc(Cn2c(C)c(C=C3C(=O)NC(=S)NC3=O)c3ccccc32)cc1	1.75
Cc1c(C=C2C(=O)NC(=S)NC2=O)c2ccccc2n1Cc1ccc(Br)cc1	3.3
Cc1c(C=C2C(=O)NC(=S)NC2=O)c2ccccc2n1Cc1ccccc1	3.31

From here, focus on the item given below.
Field request: AC50 | item: Cc1c(C=C2C(=O)NC(=S)NC2=O)c2ccccc2n1Cc1ccc(C#N)cc1 2.72
